# Test system: L1210 leukemia ip in BDF1 mice, survival T/C
# Test: NCI In Vivo Anticancer Drug Screen. Data for tumor model L1210 Leukemia (intraperitoneal) in B6D2F1 (BDF1) mice
# Assay Setup: endpoint: mean survival time; dose: 100.0 mg/kg/injection; schedule: Q01DX009 (ip); vehicle: saline with Tween-80; higher = longer survival
Inconclusive results and toxic doses are left out.
Value Kind: T/C

Using the record for `O=C(O)/C=C/C(=O)NC1CCCCC1` , report its T/C.
94 % of control

What do you have for `O=C(N/N=C/c1ccc(Cl)cc1)C(O)(c1ccccc1)c1ccccc1` ?
88 % of control

What do you have for `CC1(C)Cc2cc3ccccc3nc2-c2ccccc21` ?
94 % of control

What do you have for CC(=O)OC1/C=C/C(C)=C/CC(O)/C=C/C(C)=C/C(NC(=O)C(C)=O)C2(C)C(=O)OC(C1)C(C)C2=O (stereo unspecified) ?
103 % of control

What do you have for CCCCNCCC(SS)c1ccc(Cl)cc1 (stereo unspecified) ?
92 % of control

What do you have for `Cc1cc(Cl)cc([N+](=O)[O-])c1` ?
96 % of control

###

# Tested on: L1210 leukemia ip in BDF1 mice, survival T/C
# Test: NCI In Vivo Anticancer Drug Screen. Data for tumor model L1210 Leukemia (intraperitoneal) in B6D2F1 (BDF1) mice
# Assay Setup: endpoint: mean survival time; dose: 200.0 mg/kg/injection; schedule: Q01DX009 (ip); vehicle: Klucel (hydroxypropylcellulose) (HPC); higher = longer survival
Toxic doses and inconclusive results are not listed.
Value Kind: T/C

Using the record for `O=C(O)COc1ccc(/C=C/c2ccnc3ccccc23)cc1` , report its T/C.
99 % of control

What do you have for CCCCCCCCCCCCCCC1CC(=O)OC1=O (stereo unspecified) ?
86 % of control

What do you have for `COc1ccc(Cl)cc1NC(=O)Oc1ccc(NC(C)=O)cc1` ?
102 % of control

###

# System: L1210 leukemia ip in BDF1 mice, survival T/C
# Test: NCI In Vivo Anticancer Drug Screen. Data for tumor model L1210 Leukemia (intraperitoneal) in B6D2F1 (BDF1) mice
# Assay Setup: endpoint: mean survival time; dose: 200.0 mg/kg/injection; schedule: Q01DX001 (ip); vehicle: Klucel (hydroxypropylcellulose) (HPC); higher = longer survival
Toxic doses and inconclusive results are not listed.
# maps each entry to its T/C

| Molecule | T/C |
| --- | --- |
| Oc1cccc(N=Cc2ccccc2O)c1 | 96 % of control |

Using the record for O=C1NC(=O)C2C3C=CC(C3)C12 (stereo unspecified) , report its T/C.
101 % of control

What do you have for `CCOC(=O)CC1=C(c2ccc(OC)cc2)c2ccc(OC)cc2C1=O` ?
95 % of control

###

# maps each entry to its T/C
# Tested on: L1210 leukemia ip in BDF1 mice, survival T/C
# Test: NCI In Vivo Anticancer Drug Screen. Data for tumor model L1210 Leukemia (intraperitoneal) in B6D2F1 (BDF1) mice
# Assay Setup: endpoint: mean survival time; dose: 50.0 mg/kg/injection; schedule: Q01DX009 (ip); vehicle: saline; higher = longer survival
Inconclusive results and toxic doses are left out.

Reference set (4 entries):
| Compound | Test System | T/C |
| --- | --- | --- |
| NC(=O)NN=C1COC(c2ccccc2)OC1 (stereo not given) | L1210 leukemia ip in BDF1 mice, survival T/C | 98 % of control |
| COc1ccc(C(O)CN)cc1 (stereo not given) | L1210 leukemia ip in BDF1 mice, survival T/C | 93 % of control |
| COC(C)C(Br)C(=O)O (stereo not given) | L1210 leukemia ip in BDF1 mice, survival T/C | 98 % of control |
| Cc1cccc(Cl)c1NC(=O)C(C)N1CCCC1 (stereo not given) | L1210 leukemia ip in BDF1 mice, survival T/C | 93 % of control |

Using the record for `OC(O)(C(F)(F)F)C(F)(F)F` , report its T/C.
92 % of control

What do you have for `NC(=O)NNC(N)=O` ?
91 % of control

What do you have for CC1(C)OCC(C2OC(=O)C(O)=C2O)O1 (stereo not given) ?
111 % of control

What do you have for CC(C)=CCNc1ncnc2c1ncn2C1OC(CO)C(O)C1O (stereo not given) ?
118 % of control

What do you have for `CC(C)OC(=S)S` ?
94 % of control

###

# System: L1210 leukemia ip in BDF1 mice, survival T/C
# Test: NCI In Vivo Anticancer Drug Screen. Data for tumor model L1210 Leukemia (intraperitoneal) in B6D2F1 (BDF1) mice
# Assay Setup: endpoint: mean survival time; dose: 200.0 mg/kg/injection; schedule: Q01DX009 (ip); vehicle: other; higher = longer survival
Toxic doses and inconclusive results are not listed.
# maps each entry to its T/C

Reference set (3 entries):
| Molecule | Test System | Value Kind | Result |
| --- | --- | --- | --- |
| COc1ccc2c(c1)c(=NCCCCN=c1c3cc(OC)ccc3n(O)c3cc(Cl)ccc13)c1cc(Cl)ccc1n2O | L1210 leukemia ip in BDF1 mice, survival T/C | T/C | 101 % of control |
| Cc1cc(C)c(-c2cc(O)c(C)cc2O)c(C)c1 | L1210 leukemia ip in BDF1 mice, survival T/C | T/C | 97 % of control |
| CNC(=O)Nc1ccccc1C(=O)NN | L1210 leukemia ip in BDF1 mice, survival T/C | T/C | 96 % of control |

// moving on: another record for T/C
Using the record for CC1CCC2C1C1C(CCC2(C)O)C1(C)C (centres undefined) , report its T/C.
95 % of control

###

# System: L1210 leukemia ip in BDF1 mice, survival T/C
# Test: NCI In Vivo Anticancer Drug Screen. Data for tumor model L1210 Leukemia (intraperitoneal) in B6D2F1 (BDF1) mice
# Assay Setup: endpoint: mean survival time; dose: 25.0 mg/kg/injection; schedule: Q04DX003 (ip); vehicle: Klucel (hydroxypropylcellulose) (HPC); higher = longer survival
Inconclusive results and toxic doses are left out.
# maps each entry to its T/C

| Compound | Test System | T/C |
| --- | --- | --- |
| O=C(O)CC(C(=O)O)c1ccccc1O (stereo not drawn) | L1210 leukemia ip in BDF1 mice, survival T/C | 95 % of control |
| CCOc1ccc(/C=C/[N+](=O)[O-])cc1 | L1210 leukemia ip in BDF1 mice, survival T/C | 114 % of control |

// moving on: another record for T/C
Using the record for `O=C(CCNNC(=O)c1ccncc1)NCc1ccccc1` , report its T/C.
101 % of control

###

# Test system: L1210 leukemia ip in BDF1 mice, survival T/C
# Test: NCI In Vivo Anticancer Drug Screen. Data for tumor model L1210 Leukemia (intraperitoneal) in B6D2F1 (BDF1) mice
# Assay Setup: endpoint: mean survival time; dose: 200.0 mg/kg/injection; schedule: Q04DX003 (ip); vehicle: saline with Tween-80; higher = longer survival
Toxic doses and inconclusive results are not listed.
Value Kind: T/C

| Compound | Result |
| --- | --- |
| CCCCNCCC(SS)c1ccc(Cl)cc1 (configuration not stated) | 93 % of control |
| Oc1ccc(C=NCC2CCCC[N-]2)c(O)c1.Oc1ccc(C=NCC2CCCC[N-]2)c(O)c1.[Ni+2] (configuration not stated) | 87 % of control |
| Cc1ccc(S(=O)(=O)NC(=O)NCCCOC(C)C)cc1 | 94 % of control |
| O=C(O)C1CC=CCC1C(=O)O (configuration not stated) | 95 % of control |
| O=C(O)C1C2CCCCC2=C2CCCCC2C1C(=O)O (configuration not stated) | 94 % of control |
| Cc1ccc2c(c1)nc1c3ccccc3nc(-c3ccccc3N)n21 | 91 % of control |

// moving on: another record for T/C
Using the record for `O=C1OCCN1c1ccccc1` , report its T/C.
113 % of control

###

# System: L1210 leukemia ip in BDF1 mice, survival T/C
# Test: NCI In Vivo Anticancer Drug Screen. Data for tumor model L1210 Leukemia (intraperitoneal) in B6D2F1 (BDF1) mice
# Assay Setup: endpoint: mean survival time; dose: 200.0 mg/kg/injection; schedule: Q04DX003 (ip); vehicle: other; higher = longer survival
# Experimental: The antitumor activity of compounds was measured in mice bearing transplantable tumors. Survival or tumor size were measured and the results are expressed as the measurement made in the treated group (T) divided by the measurement made in the vehicle treated control group (C). The tumor model used in this assay is L1210 Leukemia (intraperitoneal) in B6D2F1 (BDF1) mice
Toxic doses and inconclusive results are not listed.
# maps each entry to its T/C

Reference set (3 entries):
| Molecule | T/C |
| --- | --- |
| O=C(O)C(Cc1ccccc1)NS(=O)(=O)Cc1ccccc1 (stereo not given) | 93 % of control |
| Oc1ccc(OCc2ccccc2)cc1 | 102 % of control |
| NOCc1ccsn1 | 95 % of control |

Using the record for `O=C(c1cccc([N+](=O)[O-])c1)c1ccc(O)cc1O` , report its T/C.
100 % of control

What do you have for COc1ccc2c(c1)C(Br)N(S(=O)(=O)c1ccc(C)cc1)CCC2=O (stereo not given) ?
97 % of control

Reference for the values: PubChem BioAssay AID248
